pIC50: −log10 of the molar value.
pIC50 for Tyrosine-protein kinase JAK3 (Homo sapiens, UniProt P52333), merged from several publications.
measurement-type: pIC50

>  <compound>
C=CC(=O)N1C[C@H](Nc2ncnc3[nH]cc(C4CC4COC)c23)CC[C@@H]1C (mixture of isomers)

>  <result>
≥ 8.00

$$$$
>  <compound>
C=CC(=O)N1C[C@H](Nc2ncnc3[nH]cc([C@@H]4CC4(F)F)c23)CC[C@@H]1CC (single isomer, unassigned)

>  <result>
≥ 8.00

$$$$
>  <compound>
C=CC(=O)N1CCC[C@@H](Nc2ccnc3[nH]cc(C(=O)C4CCCC4)c23)C1

>  <result>
7.00 to 8.00

$$$$
>  <compound>
CCS(=O)(=O)C1CCN(Cc2ccc(-c3cccc4nc(NC(=O)C5CC5)cn34)cc2)CC1

>  <result>
5.25

$$$$
>  <compound>
C=CC(=O)N1C[C@H](Nc2ncnc3[nH]cc(C(=O)C(F)(F)F)c23)CC[C@@H]1C

>  <result>
7.00 to 8.00

$$$$
>  <compound>
COCCOc1ccc(Nc2ncc(F)c(NCCCNS(=O)(=O)c3c(F)c(F)c(F)c(F)c3OC(F)F)n2)cc1

>  <result>
> 6.00

$$$$
>  <compound>
C=CC(=O)N1C[C@H](Nc2ncnc3[nH]cc(CC4CC4)c23)CC[C@@H]1C

>  <result>
≥ 8.00

$$$$
>  <compound>
C=CC(=O)N1CCC(Nc2cnc3[nH]cc(C(=O)OCC)c3c2)CC1

>  <result>
≥ 8.00

$$$$
>  <compound>
C=CC(=O)N1CCC(Nc2cnc3[nH]cc(C(COC)C4CC4)c3c2)CC1 (stereo not drawn)

>  <result>
< 7.00

$$$$
>  <compound>
O=C(O)/C=C/C(=O)Nc1cc2cc(c1)Nc1nccc(n1)-c1cccc(c1)COC/C=C/COC2

>  <result>
7.77

$$$$
>  <compound>
C=CC(=O)N1CCC[C@@H](Nc2ncnc3[nH]cc(CC4CCC4)c23)C1

>  <result>
≥ 8.00

$$$$
>  <compound>
C=CC(=O)N1C[C@H](Nc2ncnc3[nH]cc([C@@H]4[C@@H](C)C4(F)F)c23)CC[C@@H]1C (single isomer, unassigned)

>  <result>
≥ 8.00

$$$$
>  <compound>
C=CC(=O)N1C[C@H](Nc2ncnc3[nH]cc(C(=O)OC(C)(C)C)c23)CC[C@@H]1C

>  <result>
≥ 8.00

$$$$
>  <compound>
C=CC(=O)N1CCC[C@@H](Nc2ncnc3[nH]cc([C@H]4C[C@@H]4COC)c23)C1 (single isomer, unassigned)

>  <result>
≥ 8.00

$$$$
>  <compound>
C=CC(=O)N1CCC[C@@H](Nc2ncnc3[nH]cc(C(=O)C4CCCC4)c23)C1

>  <result>
7.00 to 8.00

$$$$
